molecular target: UniProtKB Q8IXJ6; assay: Inhibition of human recombinant SIRT2
Sequence (Q8IXJ6 whole entry): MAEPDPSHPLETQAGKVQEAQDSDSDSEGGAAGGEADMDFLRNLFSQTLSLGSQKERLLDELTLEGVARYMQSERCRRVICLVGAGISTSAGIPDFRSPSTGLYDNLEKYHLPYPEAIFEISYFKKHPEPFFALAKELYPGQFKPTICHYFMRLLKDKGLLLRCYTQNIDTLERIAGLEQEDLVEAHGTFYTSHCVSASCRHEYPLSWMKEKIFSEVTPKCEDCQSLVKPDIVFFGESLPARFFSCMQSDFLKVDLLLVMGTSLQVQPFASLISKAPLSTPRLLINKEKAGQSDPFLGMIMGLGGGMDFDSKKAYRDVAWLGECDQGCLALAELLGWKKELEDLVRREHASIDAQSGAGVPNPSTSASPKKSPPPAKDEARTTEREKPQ
attribute-measured: IC50 (µM)

CCCCC(CC)COCCCNC(=O)CCC(C)(c1ccc(O)cc1)c1ccc(O)cc1 (stereo not drawn) | 200

(A) OCc1cccc(/C=N/c2cc(/N=C/c3cccc(CO)c3O)cc(C(F)(F)F)c2)c1O
(B) CC1(C)CCC(C)(C)c2cc(-c3csc(C4CCN(Cc5ccc(N(CCC#N)CCC#N)cc5)CC4)n3)ccc21
Please indicate which item has the smaller measured IC50: A versus B To answer, give the label that identifies your chosen option.
A
(A: 91 µM, B: 136 µM)

Entry source: ChEMBL document CHEMBL1137363
